microsomal CLint values, listed per item
- protocolDescription: Metabolic stability in human liver microsomes
- Type: in vitro ADME
- experimentalConditions: pH 7.4, human liver microsomes, with NADPH, read-out: NADPH-dependent CLint

The examples below pair each entry with its known result.
CCCCc1ccc(-c2nc(C)c(-c3ccnc(NN)n3)s2)cc1: 3 to 7.5 µL/min/mg
CC(=O)CC(c1ccccc1)c1c(O)c2ccccc2oc1=O (stereo not drawn) [Warfarin, warfarin, reference compound]: 0.3 µL/min/mg

// switching to the query compound
input: Give microsomal CLint for CCCCc1ccc(-c2nc(C)c(-c3ccnc(N)n3)s2)cc1
output: 3 to 7.5 µL/min/mg

* * *

- System: Methicillin-resistant Staphylococcus epidermidis NRS101
- protocolDescription: MIC/MBC Gram-positive pathogens (Table 9)
- Assay type: cell-based
outcomeMeasure: MIC (µg/mL)

Cc1nc(-c2ccc(C(C)(C)C)cc2)sc1-c1ccnc(NC(=N)c2ccccn2)n1 [Compound 64]: 64

[I] Cc1nc(-c2ccc(C(C)(C)C)cc2)sc1-c1ccnc(NC(=N)N(C)C)n1 [Compound 58]
[II] Cc1nc(-c2ccc(C(C)(C)C)cc2)sc1-c1ccnc(NC(=N)c2cccnc2)n1 [Compound 63]
[III] Cc1nc(-c2ccc(C(C)(C)C)cc2)sc1-c1ccnc(NC(=N)N2CCOCC2)n1 [Compound 61]
input: Order the entries by their reported MIC, beginning at the minimum. List the labels, following the order given in the request.
output: III, I, II
